Source listed as patent US9840464B2.

target: XIAP-BIR3 (Homo sapiens); test: XIAP BIR3 fluorescence polarization binding assay (competition with AbuRPF-K(5-Fam)-NH2); conditions: 5 nM AbuRPF-K(5-Fam)-NH2, 40 nM XIAP-BIR3, pH 7.5; Kd calculated from measured IC50; read-out: KD Range
Sequence (P98170 241-356 limits assumed): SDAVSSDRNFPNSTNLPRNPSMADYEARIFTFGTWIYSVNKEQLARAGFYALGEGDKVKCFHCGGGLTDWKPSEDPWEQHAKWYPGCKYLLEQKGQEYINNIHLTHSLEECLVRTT
measuredQuantity: Kd

Solved cases below.
{"compound": "CC(N)C(=O)NC(C(=O)N1CCCC1CCCOc1ccccc1-c1ccccc1)C(C)C (single isomer, unassigned)", "measuredQuantity": "Kd", "result": "> 10000 nM"}
{"compound": "CC(N)C(=O)NC(C(=O)N1CCCC1Cc1coc2ccccc12)C1CCCCC1 (stereo not drawn)", "measuredQuantity": "Kd", "result": "< 100 nM"}
{"compound": "CC[C@H](N)C(=O)N[C@H](C(=O)N1C[C@@H](Oc2ccccc2)C[C@H]1Cc1coc2ccccc12)C1CCCCC1", "measuredQuantity": "Kd", "result": "100 to 1000 nM"}
{"compound": "CC(=O)NC(C)C(=O)NC(C(=O)N1CCCC1Cc1coc2ccccc12)C(C)C (stereo not drawn)", "measuredQuantity": "Kd", "result": "> 10000 nM"}
{"compound": "CNC(C)C(=O)NC(C(=O)N1CCCC1Cc1c(-c2cccs2)n(CCOCCOCCOC)c2cc(F)ccc12)C(C)(C)C (stereo not drawn)", "measuredQuantity": "Kd", "result": "< 100 nM"}

Kindly review the next compound as well.
Task item: For C[C@H](N)C(=O)N[C@H]1Cc2ccc(cc2)OCCCc2oc3ccccc3c2C[C@@H]2CCCN2C1=O , write its Kd.
Reply: 100 to 1000 nM
